B1: KLHL13 (parent)
chain: GVSKVGLRKIIDFIYTAKLSLNMD

Variants of: B1
Assay: protein stability index of a GFP-peptide fusion (GPS, HEK-293T) (PSI 1-6); higher = more stable;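 note: lentivirally expressed fusions sorted by FACS into six bins by GFP to DsRed ratio, PSI derived from sequencing read proportions per bin multiplied by bin number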
Conditions: c terminus: a fixed tail appended
Kindly state protein stability index for each of the entries shown.
One number for each entry.

INSERT INTO results (variant_descriptor, quantity_name, measurement) VALUES
  ('I11P', 'protein stability index', 1.97),
  ('I10A', 'protein stability index', 2.04),
  ('S20I', 'protein stability index', 2.04);

Below are some variants; for each one, tell me its protein stability index.
1. S20V
2. I10T

result:
1.96
2.02
